- ASSAY TEXT: Plasma pharmacokinetics of ALM201 in Phase I patients (validated LC-MS/MS, Phoenix WinNonlin)
- TEST PARAMETERS: human, plasma, sc, 40 mg, Tmax, median, 40 mg SC, day 3 cycle 1, n = 1; plasma LC-MS/MS
No end group written: not given here.
QUANTITY KIND: Tmax
Your answer should be a number followed by the unit of measure.

IN: Sample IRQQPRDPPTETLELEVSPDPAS [ALM201] — what was its Tmax?
OUT: 1.5 h

###

- ASSAY TEXT: Plasma pharmacokinetics of ALM201 in Phase I patients (validated LC-MS/MS, Phoenix WinNonlin)
- TEST PARAMETERS: human, plasma, sc, 160 mg, AUC0-t, Gmean (CV), 160 mg SC, day 3 cycle 1, n = 3; plasma LC-MS/MS
No end group written: not given here.
QUANTITY KIND: AUC(0-t)
Please give the number followed by its unit.

IN: For the sequence shown here, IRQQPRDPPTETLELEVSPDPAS [ALM201] , give the reported AUC(0-t).
OUT: 5100 ng·h/mL

###

- ASSAY TEXT: Plasma pharmacokinetics of ALM201 in Phase I patients (validated LC-MS/MS, Phoenix WinNonlin)
- TEST PARAMETERS: human, plasma, sc, 10 mg, Plasma concentration, geometric mean (CV%), 10 mg SC, day 3 cycle 1, 3.5 h after dosing, n = 1; LC-MS/MS
No end group written: not given here.
QUANTITY KIND: level at 3.5 h (ng/mL)
Output spec: scalar in ng/mL, unitless text.

IN: // returns reported level at 3.5 h for input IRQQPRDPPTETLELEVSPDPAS [ALM201]
OUT: 127

###

- ASSAY TEXT: Plasma pharmacokinetics of ALM201 in Phase I patients (validated LC-MS/MS, Phoenix WinNonlin)
- TEST PARAMETERS: human, plasma, sc, 10 mg, Plasma concentration, geometric mean (CV%), 10 mg SC, day 18 cycle 1, 3.5 h after dosing, n = 1; LC-MS/MS
No end group written: not given here.
QUANTITY KIND: level at 3.5 h
Answer format reminder: number followed by unit.

IN: Using the record for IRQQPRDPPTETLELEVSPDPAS [ALM201] , report its level at 3.5 h.
OUT: 113 ng/mL

###

- ASSAY TEXT: Plasma pharmacokinetics of ALM201 in Phase I patients (validated LC-MS/MS, Phoenix WinNonlin)
- TEST PARAMETERS: human, plasma, sc, 160 mg, Plasma concentration, geometric mean (CV%), 160 mg SC, day 1 cycle 1, 3 h after dosing, n = 3; LC-MS/MS
No end group written: not given here.
QUANTITY KIND: level at 3 h
Quote the value and follow it with the unit of measurement.

IN: I would be grateful if you could share the reported level at 3 h for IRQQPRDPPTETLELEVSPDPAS [ALM201] .
OUT: 1280 ng/mL

###

- ASSAY TEXT: Plasma pharmacokinetics of ALM201 in Phase I patients (validated LC-MS/MS, Phoenix WinNonlin)
- TEST PARAMETERS: human, plasma, sc, 80 mg, Plasma concentration, geometric mean (CV%), 80 mg SC, day 1 cycle 1, 6 h after dosing, n = 3; LC-MS/MS
No end group written: not given here.
QUANTITY KIND: level at 6 h (µg/mL)
Expressed in µg/mL, but write only the number.

IN: Given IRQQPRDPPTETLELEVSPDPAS [ALM201] , state its recorded level at 6 h.
OUT: 0.248

###

- ASSAY TEXT: Plasma pharmacokinetics of ALM201 in Phase I patients (validated LC-MS/MS, Phoenix WinNonlin)
- TEST PARAMETERS: human, plasma, sc, 100 mg, Tmax, median, 100 mg SC, day 1 cycle 1, n = 4; plasma LC-MS/MS
No end group written: not given here.
QUANTITY KIND: Tmax (h)
Report the figure in h without appending any unit label.

IN: What value of Tmax has been recorded for this entry: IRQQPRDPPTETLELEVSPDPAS [ALM201]
OUT: 1.5

###

- ASSAY TEXT: Plasma pharmacokinetics of ALM201 in Phase I patients (validated LC-MS/MS, Phoenix WinNonlin)
- TEST PARAMETERS: human, plasma, sc, 160 mg, Plasma concentration, geometric mean (CV%), 160 mg SC, day 3 cycle 1, 0.5 h after dosing, n = 3; LC-MS/MS
No end group written: not given here.
QUANTITY KIND: level at 0.5 h (ng/mL)
Report as a plain number; the unit ng/mL is understood.

IN: Which level at 0.5 h reading was recorded for the sequence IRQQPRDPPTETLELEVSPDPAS [ALM201] ?
OUT: 956

###

- ASSAY TEXT: Plasma pharmacokinetics of ALM201 in Phase I patients (validated LC-MS/MS, Phoenix WinNonlin)
- TEST PARAMETERS: human, plasma, sc, 160 mg, Plasma concentration, geometric mean (CV%), 160 mg SC, day 18 cycle 2, 2 h after dosing, n = 1; LC-MS/MS
No end group written: not given here.
QUANTITY KIND: level at 2 h
Please report the result as a number followed by the unit.

IN: Can you share its level at 2 h? I mean this sequence: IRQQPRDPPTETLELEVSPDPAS [ALM201]
OUT: 1870 ng/mL

###

- ASSAY TEXT: Plasma pharmacokinetics of ALM201 in Phase I patients (validated LC-MS/MS, Phoenix WinNonlin)
- TEST PARAMETERS: human, plasma, sc, 200 mg, Plasma concentration, geometric mean (CV%), 200 mg SC, day 18 cycle 4, 5 h after dosing, n = 2; LC-MS/MS
No end group written: not given here.
QUANTITY KIND: level at 5 h (ng/mL)
Value expressed in ng/mL; do not type the unit.

IN: Requested read-out: level at 5 h. Entry: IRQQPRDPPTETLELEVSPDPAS [ALM201]
OUT: 975

###

- ASSAY TEXT: Plasma pharmacokinetics of ALM201 in Phase I patients (validated LC-MS/MS, Phoenix WinNonlin)
- TEST PARAMETERS: human, plasma, sc, 80 mg, Cmax, Gmean (CV), 80 mg SC, day 3 cycle 1, n = 3; plasma LC-MS/MS
No end group written: not given here.
QUANTITY KIND: Cmax (ng/mL)
API: value field is a number in ng/mL; no unit string.

IN: # lookup: Cmax of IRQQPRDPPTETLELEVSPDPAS [ALM201]
OUT: 861

###

- ASSAY TEXT: Plasma pharmacokinetics of ALM201 in Phase I patients (validated LC-MS/MS, Phoenix WinNonlin)
- TEST PARAMETERS: human, plasma, sc, 300 mg, Plasma concentration, geometric mean (CV%), 300 mg SC, day 18 cycle 1, 4.5 h after dosing, n = 3; LC-MS/MS
No end group written: not given here.
QUANTITY KIND: level at 4.5 h
In your response, put the unit directly after the numeric value.

IN: Field request: level at 4.5 h | item: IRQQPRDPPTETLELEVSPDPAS [ALM201]
OUT: 1370 ng/mL

###

- ASSAY TEXT: Plasma pharmacokinetics of ALM201 in Phase I patients (validated LC-MS/MS, Phoenix WinNonlin)
- TEST PARAMETERS: human, plasma, sc, 300 mg, Cmax, Gmean (CV), 300 mg SC, day 18 cycle 6, n = 1; plasma LC-MS/MS
No end group written: not given here.
QUANTITY KIND: Cmax (ng/mL)
# number only, unit ng/mL dropped from output

IN: Could you share which Cmax value was measured for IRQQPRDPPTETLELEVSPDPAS [ALM201] ?
OUT: 6830

###

- ASSAY TEXT: Plasma pharmacokinetics of ALM201 in Phase I patients (validated LC-MS/MS, Phoenix WinNonlin)
- TEST PARAMETERS: human, plasma, sc, 10 mg, Plasma concentration, geometric mean (CV%), 10 mg SC, day 18 cycle 2, 0.5 h after dosing, n = 1; LC-MS/MS
No end group written: not given here.
QUANTITY KIND: level at 0.5 h (ng/mL)
Give the value, in units of ng/mL, as a plain number.

IN: May I ask what level at 0.5 h has been recorded for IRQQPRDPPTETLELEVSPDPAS [ALM201] ?
OUT: 158

###

- ASSAY TEXT: Plasma pharmacokinetics of ALM201 in Phase I patients (validated LC-MS/MS, Phoenix WinNonlin)
- TEST PARAMETERS: human, plasma, sc, 200 mg, Cmax, Gmean (CV), 200 mg SC, day 18 cycle 4, n = 2, CV not calculated; plasma LC-MS/MS
No end group written: not given here.
QUANTITY KIND: Cmax (ng/mL)
Provide only the numeric value, understood in ng/mL.

IN: Look up Cmax: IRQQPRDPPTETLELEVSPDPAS [ALM201]
OUT: 1680

###

- ASSAY TEXT: Plasma pharmacokinetics of ALM201 in Phase I patients (validated LC-MS/MS, Phoenix WinNonlin)
- TEST PARAMETERS: human, plasma, sc, 200 mg, Plasma concentration, geometric mean (CV%), 200 mg SC, day 18 cycle 2, 3.5 h after dosing, n = 2; LC-MS/MS
No end group written: not given here.
QUANTITY KIND: level at 3.5 h (ng/mL)
Form entry: value (ng/mL) — number only.

IN: Which level at 3.5 h is listed for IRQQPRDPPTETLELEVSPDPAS [ALM201] ?
OUT: 911
